test: Selectivity index, ratio of IC50 for african green monkey Vero cells to IC50 for erythrocyte stage Plasmodium falciparum 3D7; type: toxicity, cell-based; conditions: read-out: Ratio IC50
Overview of reported selectivity ratio across a group of compounds:

| compound | selectivity ratio |
| --- | --- |
| CCCC1(CCC)c2c(ccc(OC)c2OC)CC2=[N+]1CCc1cc3c(cc12)OCO3.[Cl-] [8,8-Dipropyldihydroberberine] | > 600 |
| CCC1(CC)c2c(ccc(OC)c2OC)C(=O)c2c3cc4c(cc3cc[n+]21)OCO4.[Cl-] | > 600 |

====

experiment: Selectivity index, ratio of IC50 for african green monkey Vero cells to IC50 for Leishmania donovani; type: toxicity, cell-based; conditions: read-out: Ratio IC50

| molecule | selectivity ratio |
| --- | --- |
| CCC1(CC)c2c(ccc(OC)c2OC)CC2=[N+]1CCc1cc3c(cc12)OCO3.[Cl-] [8,8-Diethyldihydroberberine] | > 100 |
| CCC1(CC)c2c(ccc(OC)c2OC)C(=O)c2c3cc4c(cc3cc[n+]21)OCO4.[Cl-] | > 100 |

====

experiment: Binding affinity to poly(dA.dT) DNA (unknown origin) assessed as change in melting temperature
Structures can show the parent of a compound that is named as a salt.

| molecule | ΔTm |
| --- | --- |
| COc1ccc2c(c1OC)C(C)(C)[N+]1=C(C2)c2cc3c(cc2CC1)OCO3.[Cl-] [8,8-dimethyldihydroberberine] | 0.3 °C |
| CCCC1(CCC)c2c(ccc(OC)c2OC)CC2=[N+]1CCc1cc3c(cc12)OCO3.[Cl-] [8,8-Dipropyldihydroberberine] | 0 °C |
| COc1ccc2cc3[n+](cc2c1OC)CCc1cc2c(cc1-3)OCO2 [BERBERINE SULFATE] | 3.5 °C |
| CCC1(CC)c2c(ccc(OC)c2OC)C(=O)c2c3cc4c(cc3cc[n+]21)OCO4.[Cl-] | 0.5 °C |
| CCC1(CC)c2c(ccc(OC)c2OC)CC2=[N+]1CCc1cc3c(cc12)OCO3.[Cl-] [8,8-Diethyldihydroberberine] | 0.5 °C |

====

experiment: Selectivity index, ratio of IC50 for african green monkey Vero cells to IC50 for Trypanosoma brucei brucei blood-stream forms; format: toxicity, cell-based; details: read-out: Ratio IC50

| molecule | selectivity ratio |
| --- | --- |
| CCC1(CC)c2c(ccc(OC)c2OC)CC2=[N+]1CCc1cc3c(cc12)OCO3.[Cl-] [8,8-Diethyldihydroberberine] | 3000 |
| CCC1(CC)c2c(ccc(OC)c2OC)C(=O)c2c3cc4c(cc3cc[n+]21)OCO4.[Cl-] | 3000 |

Origin of values: ChEMBL document CHEMBL2346658
